- TARGET_OR_TEST_SYSTEM: MK2 (Homo sapiens)
- Sequence (P49137 whole entry): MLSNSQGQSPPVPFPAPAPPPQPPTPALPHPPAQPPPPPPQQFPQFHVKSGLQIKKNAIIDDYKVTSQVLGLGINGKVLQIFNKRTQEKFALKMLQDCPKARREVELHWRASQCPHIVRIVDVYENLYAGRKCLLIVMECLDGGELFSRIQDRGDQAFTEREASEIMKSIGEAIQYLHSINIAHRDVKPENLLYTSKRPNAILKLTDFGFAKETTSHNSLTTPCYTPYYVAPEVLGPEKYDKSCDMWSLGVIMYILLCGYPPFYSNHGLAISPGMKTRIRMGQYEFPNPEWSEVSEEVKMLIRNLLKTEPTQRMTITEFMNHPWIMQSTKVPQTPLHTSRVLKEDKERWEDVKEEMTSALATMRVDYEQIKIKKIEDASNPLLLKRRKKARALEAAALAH
- PROTOCOL: MK2 degradation in human SW1353 cells (MSD, 24 h)
- Format: cell-based
- Design: endogenous in cells; host or cells: SW-1353 (ATCC HTB-94)
- APPLIED_CONDITIONS: read-out: MK2 MSD SW 1353 24 h Dmax %
Quick list: Dmax per entry.

A selection of reference data follows.
| MOLECULE | Dmax |
| --- | --- |
| C[C@@H]1CNc2c(sc3ccc4nc(N5CCC(N6CC7(CCN(c8ccc9c(c8)n(C)c(=O)n9C8CCC(=O)NC8=O)CC7)C6)CC5)ccc4c23)C(=O)N1 (some centres unmarked) | > 75% |
| C#Cc1cc(-c2ccc3c(ccc4sc5c(c43)NC[C@@H](C)NC5=O)n2)cc(N2CCN(CC3CCN(c4ccc5c(c4)n(C)c(=O)n5C4CCC(=O)NC4=O)CC3)CC2)c1 (some centres unmarked) | > 75% |

Now for the molecule whose Dmax we want.
**Q:** Report value: Dmax, system: MK2 (Homo sapiens), molecule: Cn1c(=O)n(C2CCC(=O)NC2=O)c2ccc(N3CCC(CN4CCN(c5ccc(-c6cc(-c7cc8c([nH]7)C7(CCCC7)CNC8=O)ccn6)c(F)c5)CC4)CC3)cc21 (centres unmarked)
**A:** > 75%

====

- TARGET_OR_TEST_SYSTEM: MK2 (Homo sapiens)
- PROTOCOL: MK2 degradation in human SW1353 cells (MSD, 24 h)
- Assay type: cell-based
- Design: endogenous in cells; host or cells: SW-1353 (ATCC HTB-94)
- APPLIED_CONDITIONS: read-out: MK2 MSD SW 1353 24 h Dmax %
Below, each entry is listed alongside its reported Dmax.

Solved cases (5 shown):
| COMPOUND | TARGET_OR_TEST_SYSTEM | REPORTED |
| --- | --- | --- |
| C[C@@H]1CNc2c(sc3ccc4nc(-c5cccc(C#CCCNC(=O)COCCOCCc6ccc7c(c6)n(C)c(=O)n7C6CCC(=O)NC6=O)c5)ccc4c23)C(=O)N1 (stereo partly drawn) | MK2 (Homo sapiens) | > 75% |
| C[C@@H]1CNc2c(sc3ccc4nc(N5CCC6(CC5)CC(N5CCN(c7ccc8c(c7)n(C)c(=O)n8C7CCC(=O)NC7=O)CC5)C6)ccc4c23)C(=O)N1 (stereo partly drawn) | MK2 (Homo sapiens) | > 75% |
| C[C@@H]1CNc2c(sc3ccc4nc(-c5ccc(N6CCN(CC7CN(c8ccc9c(c8)n(C)c(=O)n9C8CCC(=O)NC8=O)C7)CC6)nc5)ccc4c23)C(=O)N1 (stereo partly drawn) | MK2 (Homo sapiens) | > 75% |
| C[C@@H]1CNc2c(sc3ccc4nc(-c5cnc(N6CCC(CN7CCN(c8ccc9c(c8)n(C)c(=O)n9C8CCC(=O)NC8=O)CC7)CC6)nc5)ccc4c23)C(=O)N1 (stereo partly drawn) | MK2 (Homo sapiens) | > 75% |
| C[C@@H]1CNc2c(sc3ccc4nc(-c5ccc(N6CCN(CC7CCN(c8ccc9c(c8)CN(C8CCC(=O)NC8=O)C9=O)CC7)CC6)cc5)ccc4c23)C(=O)N1 (stereo partly drawn) | MK2 (Homo sapiens) | > 75% |

**Q:** Report Dmax, nothing else, for this compound: Cn1c(=O)n(C2CCC(=O)NC2=O)c2ccc(CCCN3CCN(c4cccc(-c5ccc(-c6cc7c([nH]6)CCNC7=O)cn5)c4)CC3)cc21 (stereo not drawn)
**A:** < 50%

**Q:** Return Dmax (reported value) for this compound: C[C@@H]1CNc2c(sc3ccc4nc(-c5ccc(N6CCC(CN7CCC(c8cccc9c8n(C)c(=O)n9C8CCC(=O)NC8=O)CC7)CC6)nc5)ccc4c23)C(=O)N1 (stereo partly drawn)
**A:** > 75%

**Q:** Give the measured Dmax for COc1cc(-c2ccc3c(ccc4sc5c(c43)NC[C@@H](C)NC5=O)n2)c(C)cc1N1CCN(CC2CCN(c3ccc4c(c3)n(C)c(=O)n4C3CCC(=O)NC3=O)CC2)CC1 (stereo partly drawn)
**A:** > 75%

**Q:** State, in one line, measured Dmax of Cc1cnc(-c2ccnc(C(=O)NCCCCCCc3ccc4c(c3)n(C)c(=O)n4C3CCC(=O)NC3=O)n2)cc1-n1c(C)cc(OCc2ncc(F)cc2F)c(Cl)c1=O (stereo not drawn)
**A:** < 50%

**Q:** Give the reported Dmax for this compound. Cn1c(=O)n(C2CCC(=O)NC2=O)c2ccc(CCCCCCN3CC4(CCN(c5ccc6c(c5)Cn5cc(-c7ccc(F)cc7)cc5-c5nccn5-6)C4)C3)cc21 (stereo not drawn)
**A:** < 50%

**Q:** Please list Dmax recorded for the compound COc1cc(-c2ccc3c(ccc4sc5c(c43)NC[C@@H](C)NC5=O)n2)c(F)cc1N1CCN(CC2CCN(c3ccc4c(c3)n(C)c(=O)n4C3CCC(=O)NC3=O)CC2)CC1 (stereo partly drawn)
**A:** > 75%
